measured.target: mitochondrial F1F0-ATPase (Bos taurus, UniProt P13621+P32876)
method.summary: biochemical
Parameters: species or system bovine
details: read-out: KJ IC50 (hydr)
Exam item: assign YES to entries whose IC50 is below 100 nM and NO to entries at or above 100 nM. Note that a value of exactly 100 nM receives NO.

Worked examples, 6 compounds total:
>>> qualitative_label("O=S(=O)(c1ccc(C(F)(F)F)cc1)N1Cc2ccccc2N(Cc2c[nH]cn2)C(CCc2ccccc2)C1 (stereo not drawn)")
"YES"
>>> qualitative_label("O=S(=O)(c1ccc(Cl)c(Cl)c1)N1Cc2ccccc2N(Cc2c[nH]cn2)C(CCc2ccccc2)C1 (stereo not drawn)")
"YES"
>>> qualitative_label("N#CN/C(=N/c1ccc(Cl)cc1Cl)NC(Cn1ccnc1)c1ccc(Cl)cc1Cl (stereo not drawn)")
"NO"
>>> qualitative_label("CC(C)(C)c1ccc(S(=O)(=O)N2Cc3ccccc3N(Cc3c[nH]cn3)C(CCc3ccccc3)C2)cc1 (stereo not drawn)")
"YES"
>>> qualitative_label("S=C(Nc1ccc(Cl)cc1)OC(Cn1ccnc1)c1ccc(Cl)cc1Cl (stereo not drawn)")
"NO"
>>> qualitative_label("O=S(=O)(c1ccc(F)cc1)N1Cc2ccccc2N(Cc2c[nH]cn2)C(CCc2ccccc2)C1 (stereo not drawn)")
"NO"

Would you kindly look at the next entry?
IN: Just wondering, is IC50 of COc1ccc(S(=O)(=O)N2Cc3ccccc3N(Cc3c[nH]cn3)C(CCc3ccccc3)C2)cc1 (stereo not drawn) below 100 nM?
OUT: YES

====

measured.target: mitochondrial F1F0-ATPase (Bos taurus, UniProt P13621+P32876)
method.summary: biochemical
Design: species or system bovine
details: read-out: KJ IC50 (hydr)
Below is a list of entries, each paired with its recorded IC50 value.
Only the number, expressed in nM, is required.

Lab note: O=S(=O)(N1Cc2ccccc2N(Cc2c[nH]cn2)C(CCc2ccccc2)C1)C(F)(F)F (stereo not drawn) gave IC50 of 50

Lab note: Cc1[nH]cnc1CN1c2ccccc2CN(S(=O)(=O)c2ccc(C(C)(C)C)cc2)CC1CCc1ccccc1 (stereo not drawn) gave IC50 of 55

Lab note: O=S(=O)(c1ccc(O)cc1)N1Cc2ccccc2N(Cc2cnc[nH]2)C(CCc2ccccc2)C1 (stereo not drawn) gave IC50 of 750

====

measured.target: mitochondrial F1F0-ATPase (Bos taurus, UniProt P13621+P32876)
method.summary: biochemical
Design: species or system bovine
details: bovine SMPs; read-out: ATPase activity EC50 (μM), Hydrolysis
endpoint: EC50 (µM)
Only the number, expressed in µM, is required.

Lab note: CCC(C)N(C)C(=O)c1cc2ccccc2c(-c2ccccc2Cl)n1 (centres unmarked) gave EC50 of 230

====

measured.target: mitochondrial F1F0-ATPase (Bos taurus, UniProt P13621+P32876)
method.summary: biochemical
Set-up: species or system bovine
details: ATPase activity EC50 (μM), Hydrolysis, bovine SMPs
endpoint: EC50 (µM)
Only the number, expressed in µM, is required.

>>> numeric_result("CN1C(=O)C(Cc2ccc3ccccc3c2)N=C(c2ccc(O)cc2)c2cc(Cl)ccc21 (stereo not drawn) [Bz-423]")
8.9

Lab note: O=C1CN=C(c2ccccc2Cl)c2cc([N+](=O)[O-])ccc2N1 [Cz, clonazepam] gave EC50 of 240
